meta.source: patent US6979686B1

- MEASURED_TARGET: human p38 kinase alpha (Homo sapiens)
- Construct: GST (N, cleaved yes); made in house; host or cells: E. coli DH10B
- PROCEDURE_SUMMARY: p38 kinase in vitro assay, phosphorylation of biotinylated PHAS-I with 32P-ATP
- Type: biochemical
- TEST_PARAMETERS: in vitro P38-alpha kinase; read-out: P38 alpha kinase IC50
- Method: The coding region of the human p38a cDNA was obtained by PCR-amplification from RNA isolated from the human monocyte cell line THP.1. […] Random primer, dNTP's and Superscript™ reagents were all purchased from Life-Technologies, Gaithersburg, Mass. The reaction was incubated at 42° C. for 1 hour. […]
TEST_READOUT: log10 of IC50 (log10 of the value in nM)
Recall that a logarithmic scale is used here: each number is log10 of IC50 in nM.

Example compounds with recorded log10 of IC50:
> print(dat)
                                   compound   test.readout  result.number
1  O=C(c1c(F)cccc1F)N1CCC(c2[nH]nc(-c3ccc(F)cc3)c2-c2ccncc2)CC1  log10 of IC50           1.52
2  O=C(c1ccc(I)cc1)N1CCC(c2[nH]nc(-c3ccc(F)cc3)c2-c2ccncc2)CC1  log10 of IC50           1.60
3  CS(=O)(=O)N1CCC(c2[nH]nc(-c3ccc(F)cc3)c2-c2ccncc2)CC1  log10 of IC50           0.95
4  Cc1c(-c2ccncc2)c(-c2ccc(F)cc2)nn1CC(=O)NCC(c1ccccc1)c1ccccc1  log10 of IC50           4.17
5  CN(C)c1cccc2c(S(=O)(=O)N3CCC(c4[nH]nc(-c5ccc(F)cc5)c4-c4ccncc4)CC3)cccc12  log10 of IC50           3.19

Recorded log10 of IC50 of `O=S(=O)(NCCCc1[nH]nc(-c2ccc(F)cc2)c1-c1ccncc1)c1ccccc1C(F)(F)F` , please.
3.02

Next: `O=C(O)c1ccccc1S(=O)(=O)NCCCc1[nH]nc(-c2ccc(F)cc2)c1-c1ccncc1`
1.90

Next: `O=S(=O)(NCCCc1[nH]nc(-c2ccc(F)cc2)c1-c1ccncc1)c1cccc2cnccc12`
1.90

----------
- MEASURED_TARGET: human p38 kinase alpha (Homo sapiens, UniProt Q16539)
- Construct: GST (N, cleaved yes); made in house; host or cells: E. coli DH10B
- Sequence (Q16539 whole entry): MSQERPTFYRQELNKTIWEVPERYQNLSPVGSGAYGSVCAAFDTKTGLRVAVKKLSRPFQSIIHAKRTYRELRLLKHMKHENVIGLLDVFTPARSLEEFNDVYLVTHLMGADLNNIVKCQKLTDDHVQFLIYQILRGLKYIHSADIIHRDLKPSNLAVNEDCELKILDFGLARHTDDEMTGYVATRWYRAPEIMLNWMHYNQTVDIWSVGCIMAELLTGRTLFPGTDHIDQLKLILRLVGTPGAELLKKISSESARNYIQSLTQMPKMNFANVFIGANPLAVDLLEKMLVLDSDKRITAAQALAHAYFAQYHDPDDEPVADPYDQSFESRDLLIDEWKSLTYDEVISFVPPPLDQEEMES
- PROCEDURE_SUMMARY: p38 kinase in vitro assay, phosphorylation of biotinylated PHAS-I with 32P-ATP
- Assay type: biochemical
- TEST_PARAMETERS: in vitro P38-alpha kinase inhibition; read-out: P38 alpha kinase IC50
Listed molecules paired with reported IC50
Quick reminder: number only, in nM, skip the unit.

> print(dat)
                                   molecule  result.number
1  CC(NS(=O)(=O)c1cc(Cl)c(Cl)s1)c1[nH]nc(-c2ccc(F)cc2)c1-c1ccncc1 (stereo not shown) [Example B-0629]            200

Notebook entry, human p38 kinase alpha (Homo sapiens, UniProt Q16539) assay: IC50 of CC(=O)Nc1nc(C)c(S(=O)(=O)NCCc2[nH]nc(-c3ccc(F)cc3)c2-c2ccncc2)s1 [Example B-1058] = ?
660

Next: O=S(=O)(NC(Cc1ccccc1)c1[nH]nc(-c2ccc(F)cc2)c1-c1ccncc1)c1ccccc1F (stereo not shown) [Example B-0759]
300

Next: COCC(=O)NC(Cc1ccccc1)c1[nH]nc(-c2ccc(F)cc2)c1-c1ccncc1 (stereo not shown) [Example B-0842]
740

----------
- MEASURED_TARGET: human p38 kinase alpha (Homo sapiens, UniProt Q16539)
- Construct: GST (N, cleaved yes); made in house; host or cells: E. coli DH10B
- PROCEDURE_SUMMARY: p38 kinase in vitro assay, phosphorylation of biotinylated PHAS-I with 32P-ATP
- Assay type: biochemical
- TEST_PARAMETERS: in vitro P38-alpha kinase inhibition; read-out: P38 alpha kinase IC50
IC50 strictly less than 400 nM = yes (1). Otherwise no (0).

I'd appreciate it if you could check whether `O=C(NCCc1[nH]nc(-c2ccc(F)cc2)c1-c1ccncc1)c1cccc(F)c1` has IC50 smaller than 400 nM.
no (0)

Next: CC(C)COC(=O)NC(Cc1ccccc1)c1[nH]nc(-c2ccc(F)cc2)c1-c1ccncc1 (centres unmarked) [Example B-0858]
no (0)

Next: `O=S(=O)(NCCc1[nH]nc(-c2ccc(F)cc2)c1-c1ccncc1)c1ccc(-c2ccccn2)s1`
yes (1)

Next: `O=C(NCCc1[nH]nc(-c2ccc(F)cc2)c1-c1ccncc1)c1cccs1`
yes (1)

Next: O=C(NC(Cc1ccccc1)c1[nH]nc(-c2ccc(F)cc2)c1-c1ccncc1)N1CCCC1 (centres unmarked)
no (0)

Next: COc1ccc(NC(=O)NC(C)c2[nH]nc(-c3ccc(F)cc3)c2-c2ccncc2)cc1 (centres unmarked)
no (0)

Next: CCCCS(=O)(=O)NC(C)c1[nH]nc(-c2ccc(F)cc2)c1-c1ccncc1 (centres unmarked)
yes (1)

Next: `O=C(NCCc1[nH]nc(-c2ccc(F)cc2)c1-c1ccncc1)c1ccc(F)cc1C(F)(F)F`
yes (1)

----------
- MEASURED_TARGET: human p38 kinase alpha (Homo sapiens, UniProt Q16539)
- Construct: GST (N, cleaved yes); made in house; host or cells: E. coli DH10B
- PROCEDURE_SUMMARY: p38 kinase in vitro assay, phosphorylation of biotinylated PHAS-I with 32P-ATP
- Format: biochemical
- TEST_PARAMETERS: in vitro P38-alpha kinase; read-out: P38 alpha kinase IC50
TEST_READOUT: pIC50
Quick note: pIC50 values are minus log10 of concentrations in mol/L.

Example compounds with recorded pIC50:
> print(dat)
                                   compound  result.number
1  O=S(=O)(c1ccc(F)c(F)c1)N1CCC(c2[nH]nc(-c3ccc(F)cc3)c2-c2ccncc2)CC1 [Example B-1456]           5.89
2  Cc1noc(C)c1C(=O)NCc1[nH]nc(-c2ccc(F)cc2)c1-c1ccncc1 [Example B-0304]           6.26
3  O=S(=O)(NCCCc1[nH]nc(-c2ccc(F)cc2)c1-c1ccncc1)c1cccc(C(F)(F)F)c1 [Example B-1276]           7.21
4  COC(=O)CCNC(=O)Cn1nc(-c2ccc(F)cc2)c(-c2ccncc2)c1C [Example B-2301]           6.74
5  O=S(=O)(NCCCc1[nH]nc(-c2ccc(F)cc2)c1-c1ccncc1)c1ccc(Cl)cc1Cl [Example B-1253]           6.82
6  O=C(NCCCc1[nH]nc(-c2ccc(F)cc2)c1-c1ccncc1)c1ccccc1Br [Example B-1355]           7.15

Recorded pIC50 of CN(C)CCCNC(=O)NCCCc1[nH]nc(-c2ccc(F)cc2)c1-c1ccncc1 [Example B-1303] , please.
7.10

Next: O=C(NCCCc1[nH]nc(-c2ccc(F)cc2)c1-c1ccncc1)c1c(F)cc(F)cc1F [Example B-1336]
7.14

Next: O=S(=O)(c1cccc2nonc12)N1CCC(c2[nH]nc(-c3ccc(F)cc3)c2-c2ccncc2)CC1 [Example B-1436]
6.00

Next: O=C(c1cc(F)ccc1F)N1CCC(c2[nH]nc(-c3ccc(F)cc3)c2-c2ccncc2)CC1 [Example B-1402]
6.92

Next: Cc1cccc(S(=O)(=O)N2CCC(c3[nH]nc(-c4ccc(F)cc4)c3-c3ccncc3)CC2)c1 [Example B-1467]
5.91

Next: CC(=O)NCCNC(=O)NCCCc1[nH]nc(-c2ccc(F)cc2)c1-c1ccncc1 [Example B-1305]
6.19

----------
- MEASURED_TARGET: human p38 kinase alpha (Homo sapiens)
- Construct: GST (N, cleaved yes); made in house; host or cells: E. coli DH10B
- PROCEDURE_SUMMARY: p38 kinase in vitro assay, phosphorylation of biotinylated PHAS-I with 32P-ATP
- Format: biochemical
- TEST_PARAMETERS: @ 10.0 uM
Values of P38 alpha kinase IC50, uM or % inhib @ conc. (uM): % inhib greater than or equal to 80 % @ map to 1 (yes); values below map to 0 (no).

Some entries whose results are on file:
> print(dat)
                                     smiles  answer.label
1  Cc1c(-c2ccncc2)c(-c2ccc(F)cc2)nn1CC(=O)N(C)CCc1ccncc1        0 (no)
2  Cc1c(-c2ccncc2)c(-c2ccc(F)cc2)nn1CC(=O)Nc1ccc(S(=O)(=O)C(F)F)cc1       1 (yes)
3  Cc1c(-c2ccncc2)c(-c2ccc(F)cc2)nn1CC(=O)N(C)CC(N)=O        0 (no)
4  CCCCCSc1cccc(NC(=O)Cn2nc(-c3ccc(F)cc3)c(-c3ccncc3)c2C)c1       1 (yes)

Moving on to another molecule below.
Please check the record `Cc1c(-c2ccncc2)c(-c2ccc(F)cc2)nn1CC(=O)Nc1ccc(C2CCCCC2)cc1` and state if its P38 alpha kinase IC50, uM or % inhib @ conc. (uM): % inhib is at or above 80 % @.
1 (yes)
